target: Serotonin 2 (5-HT2) receptor (Rattus norvegicus, UniProt P08909+P14842+P30994)
Sequence (P14842 whole entry): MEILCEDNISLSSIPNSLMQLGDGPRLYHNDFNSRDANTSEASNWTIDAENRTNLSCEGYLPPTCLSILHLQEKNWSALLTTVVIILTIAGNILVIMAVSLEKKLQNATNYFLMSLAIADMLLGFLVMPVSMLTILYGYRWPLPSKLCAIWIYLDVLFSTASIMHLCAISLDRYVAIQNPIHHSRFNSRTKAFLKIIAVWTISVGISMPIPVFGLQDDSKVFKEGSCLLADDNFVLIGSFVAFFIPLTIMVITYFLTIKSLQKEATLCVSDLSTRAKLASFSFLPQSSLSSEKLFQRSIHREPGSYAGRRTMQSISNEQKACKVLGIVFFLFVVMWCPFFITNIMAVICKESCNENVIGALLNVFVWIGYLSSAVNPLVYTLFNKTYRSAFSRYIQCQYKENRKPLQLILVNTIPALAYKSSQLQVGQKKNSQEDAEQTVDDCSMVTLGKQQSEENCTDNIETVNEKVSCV
Sequence (P08909 whole entry): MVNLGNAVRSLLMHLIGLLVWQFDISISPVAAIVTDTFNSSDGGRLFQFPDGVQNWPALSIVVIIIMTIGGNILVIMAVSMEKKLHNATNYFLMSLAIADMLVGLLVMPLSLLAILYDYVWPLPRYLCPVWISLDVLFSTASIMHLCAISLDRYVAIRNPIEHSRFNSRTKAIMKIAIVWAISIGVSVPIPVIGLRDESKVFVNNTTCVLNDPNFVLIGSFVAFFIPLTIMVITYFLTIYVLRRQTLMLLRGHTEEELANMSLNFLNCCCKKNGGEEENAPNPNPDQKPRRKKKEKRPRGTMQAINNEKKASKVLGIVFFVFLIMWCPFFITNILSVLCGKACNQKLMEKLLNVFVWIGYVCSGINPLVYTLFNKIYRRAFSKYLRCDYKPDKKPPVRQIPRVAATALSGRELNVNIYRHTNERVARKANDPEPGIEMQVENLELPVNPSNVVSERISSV
Sequence (P30994 whole entry): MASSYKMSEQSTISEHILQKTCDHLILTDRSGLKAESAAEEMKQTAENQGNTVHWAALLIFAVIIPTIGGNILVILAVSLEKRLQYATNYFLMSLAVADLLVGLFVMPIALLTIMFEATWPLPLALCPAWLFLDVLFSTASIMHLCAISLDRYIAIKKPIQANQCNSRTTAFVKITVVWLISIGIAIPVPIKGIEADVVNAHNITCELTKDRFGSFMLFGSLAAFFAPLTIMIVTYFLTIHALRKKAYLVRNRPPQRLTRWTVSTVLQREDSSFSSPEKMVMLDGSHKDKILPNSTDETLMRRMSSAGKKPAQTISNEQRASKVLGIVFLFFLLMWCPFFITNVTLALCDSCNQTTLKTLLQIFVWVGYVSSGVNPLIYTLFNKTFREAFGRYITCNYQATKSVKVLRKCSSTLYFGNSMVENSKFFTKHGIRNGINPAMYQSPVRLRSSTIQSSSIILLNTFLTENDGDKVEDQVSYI
assay name: ChEBML_1935
quantity kind: IC50 (µM)

>>> result("OC(CCCN1CCN(c2ncc(F)cn2)CC1)c1ccc(F)cc1 (stereo unspecified)")
1.7

###

target: D(2) dopamine receptor (Rattus norvegicus, UniProt P61169)
Sequence (P61169 whole entry): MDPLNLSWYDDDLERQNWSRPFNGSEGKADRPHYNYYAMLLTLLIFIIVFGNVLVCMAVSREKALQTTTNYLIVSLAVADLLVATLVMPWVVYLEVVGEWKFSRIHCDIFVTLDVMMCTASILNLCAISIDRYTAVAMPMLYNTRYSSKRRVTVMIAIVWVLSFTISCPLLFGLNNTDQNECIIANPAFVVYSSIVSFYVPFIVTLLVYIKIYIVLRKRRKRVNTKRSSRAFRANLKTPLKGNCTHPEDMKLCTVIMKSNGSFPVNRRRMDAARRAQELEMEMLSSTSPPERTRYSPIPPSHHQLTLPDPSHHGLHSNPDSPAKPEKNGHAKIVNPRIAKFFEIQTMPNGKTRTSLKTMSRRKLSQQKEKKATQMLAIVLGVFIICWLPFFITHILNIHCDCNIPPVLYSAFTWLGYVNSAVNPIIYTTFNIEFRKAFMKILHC
quantity kind: IC50 (µM)

>>> result("OC(CCCN1CCN(c2ncc(F)cn2)CC1)c1ccc(F)cc1 (stereo unspecified)")
6.43
